Below, each entry is listed with its recorded growth.
system: OVCAR-8 ovarian; assay: NCI-60 one-dose screen, 48 h (100 = growth as untreated, 0 = no growth, -100 = all killed); conditions: 10 µM unless noted
About 83,000 compounds went through this panel and 20% of them were active in at least one assay; those are over-represented in the sample as a whole. Active and inactive are the calls of the source. Rule for the calls: active = growth percent below 10; inactive = the rest.

Compound	growth
Nc1c(C(=O)Nc2cccc3cnccc23)sc2nc3c(cc12)CN(Cc1ccccc1)CC3	106% (inactive)
O=S(=O)(NCCCNc1nccc(-c2c(-c3cccc(F)c3)nc3sccn23)n1)c1cccc2ccccc12	38.5% (inactive)
Cn1cc(CC2CC(=O)N(c3ccccc3)C2=O)sc1=NC(=O)c1ccccc1 (stereo not given)	104% (inactive)
Cc1nn(-c2ccccc2)c(Oc2c(Cl)cccc2Cl)c1/C=N/N=c1\sc2ccccc2n1C	45.8% (inactive)
Nc1n[nH]c2cccc(C#Cc3cccc(C(=O)Nc4cccc(C(F)(F)F)c4)c3)c12	76.3% (inactive)
Cc1ccc(NC(=O)Cc2ccc(/C=C/C(=O)c3ncc[nH]3)cc2)cc1	8.42% (active)
COc1cccc(-c2cc(C(=O)Nc3ccc(/C=C/c4ccc(OC5CCN(C)CC5)cc4)cc3)ccc2OC)c1	-38.8% (active)
COc1ccc(CCn2cncc2-c2c[nH]c3ccccc23)cc1	93.5% (inactive)
N/C(=N\C(N)=N\c1nc2ccccc2s1)c1cccc(Cl)c1	70.8% (inactive)
COc1cc(OC)cc(C(=O)C[n+]2cccc3cc[nH]c32)c1	103% (inactive)
C=C(C)[C@@H]1CC[C@]2(C(=O)N3CCN(C)CC3)CC[C@]3(C)[C@H](CC[C@@H]4[C@@]5(C)CC[C@H](OCCC#N)C(C)(C)[C@@H]5CC[C@]43C)[C@@H]12	6.81% (active)
O=C(CCN1CCCC1)Nc1ccc2c(NCCc3ccccc3)c3ccccc3nc2c1	3.23% (active)
CC[C@]12C=CCN3CC[C@@]4(c5cc(NC(=O)CCC(=O)O[C@H]6CC[C@H]7[C@@H]8CCC9=CC(=O)CC[C@@H]9[C@H]8CC[C@]67C)c(OC)cc5N(C)[C@H]4[C@@](O)(C(=O)OC)[C@@H]1OC(C)=O)[C@@H]32	75.6% (inactive)
COc1ccc2c(c1)C(=O)CC(c1ccccc1OC)O2 (stereo not given)	100% (inactive)
NC1[C@H](c2c[nH]c3ccccc23)c2c([nH]c3ccccc23)[C@H]1c1c[nH]c2ccccc12 (stereo not given in full)	99.8% (inactive)
Cc1nn(-c2ccccc2)c(Cl)c1/C=N\N=c1/sc2ccccc2n1C	98.2% (inactive)
COc1cc2c(=O)n(CCN)c3c4cc5c(cc4ccc3c2cc1OC)OCO5	-49.9% (active)
CCCNC(=O)Oc1ccc(/C(=C(\C)c2ccccc2)c2ccc(OCCCN(C)C)cc2)cc1	86.6% (inactive)
COc1cccc(/C=N/NC(=O)c2cnn3c2NC(c2ccccc2)C3)c1Oc1ccccc1 (stereo not given)	89% (inactive)
C#Cc1cccc(NC(=O)Nc2cccc(NC(=O)CCl)c2)c1	-7.18% [8.25 µM] (active)
Cc1ccc(NC(=O)c2cc(-c3nc4ccccc4s3)c(=O)n(NS(=O)(=O)c3ccc(Cl)cc3)c2N)cc1	103% (inactive)
COc1ccc(-c2nc([C@@H](C)Sc3nc(N)cc(N)n3)c(C)s2)cc1OCCN1CCOCC1	95.8% (inactive)
CCOC(=O)[C@@H]1CCCN(S(=O)(=O)c2ccc(S(=O)(=O)N(CC)CC)c(F)c2)C1	77.8% (inactive)
CN(C)CCC(=O)c1ccc([N+](=O)[O-])cc1	110% (inactive)
O=C(N/N=C/c1ccc(Oc2ccccc2)cc1)c1cnn2c1NC(c1ccccc1)C2 (stereo not given)	52.1% (inactive)
O=C(/C(=C\c1ccc([N+](=O)[O-])cc1)S(=O)Cc1ccc(Cl)cc1)c1ccc(Cl)cc1 (stereo not given)	73.6% (inactive)
COC(=O)/C=C1\S/C(=N\NC(=O)c2cc3ccc2/C=C\c2ccc(cc2)/C=C\3)N(c2ccccc2)C1=O	40.7% (inactive)
O=c1[nH]nc(-c2ccccc2)c2sc3ncc(-c4ccc(Br)cc4)n3c12	46.5% (inactive)
O=C1Nc2cc(-c3ccc(NC(=O)C4CC4)cc3)ccc2/C1=C/c1ccc[nH]1	110% (inactive)
COc1cc(C2C3CC4CCCC[C@H]4N3[C@@]3(C(=O)Nc4cc(Cl)ccc43)C2C(=O)c2nc3ccccc3[nH]2)cc(OC)c1OC (stereo not given in full)	70.7% (inactive)
